Kindly supply the reported MIC values for the records listed here.
tested on: MRSA
Give bare numbers, in µg/mL.

INSERT INTO assay_data (molecule, target, endpoint_result) VALUES
  ('NC[C@H]1O[C@H](O[C@H]2[C@H](O)[C@@H](O[C@H]3O[C@H](CO)[C@@H](O)[C@H](N)[C@H]3O)[C@H](N)C[C@@H]2N)[C@H](N)C[C@@H]1O', 'MRSA', 1),
  ('CC(C)(O/N=C(\C(=O)N[C@@H]1C(=O)N2C(C(=O)[O-])=C(C[n+]3ccccc3)CS[C@H]12)c1csc(N)n1)C(=O)O', 'MRSA', 16),
  ('CO/N=C(\C(=O)N[C@@H]1C(=O)N2C(C(=O)O)=C(CSc3nc(=O)c(=O)[nH]n3C)CS[C@H]12)c1csc(N)n1', 'MRSA', 16);

Continue with the next molecule.
Input: Observed MIC on MRSA for CC1(C)S[C@@H]2[C@H](NC(=O)C(C(=O)O)c3ccccc3)C(=O)N2[C@H]1C(=O)O (stereo partly shown) , please.
Output: 8
